compounds and their reported inhibition
system: Glucose transporter (Leishmania mexicana)
protocol_description: ST_JUDE_LEISH: Cytotoxicity at 2uM final concentration against transgenic Leishmania Mexicana promastigotes LmGT2 that are glucose transport deficient and complemented with the L. Mexicana glucose transporter 2. Activity is measured by DNA content using SYBR green in vitro
Type: functional
State the answer as a number, implicitly in %.

Input Nc1ncc(-c2cccc(CCN3CCOCC3)c2)cc1-c1nc2cc(Br)ccc2[nH]1 , output reported inhibition.
11.8

Input O=[N+]([O-])c1ccc(N2CCCN(C(=S)Nc3ccc(F)cc3Br)CC2)nc1 , output reported inhibition.
1.29

Input CCCCN1Cc2c(n(CC(=O)Nc3ccccc3)c3cc(-c4ccccc4)nn3c2=O)C1=O , output reported inhibition.
1.8

Input CCCCOc1c(CCNCCCCNCCc2cc(OC)c3ccccc3c2OCCCC)cc(OC)c2ccccc12 , output reported inhibition.
2.03

Input COc1ccc(C2CCN(CCCCNC(=O)c3ccc(NC(=O)c4ccc(Cl)cc4)cc3)CC2)c(C)c1 , output reported inhibition.
-2.18

Input CN(Cc1cccc(O)c1)C1CCCN(c2cc(NC(=O)c3ccc(F)cc3)ccn2)C1 (stereo not drawn) , output reported inhibition.
5.91

Input OC1CCC(Nc2ccc3ncc(-c4ccc5ccccc5c4)n3n2)CC1 (stereo not drawn) , output reported inhibition.
3.53

Input O=C(c1ccc(F)c2ccccc12)N1CCc2cc3nccc(N4CCN5CCC[C@H]5C4)c3cc21 , output reported inhibition.
0.27

----------
system: Glucose transporter (Leishmania mexicana)
protocol_description: ST_JUDE_LEISH: Cytotoxicity at 2uM final concentration against transgenic Leishmania Mexicana promastigotes LmGT2 that are glucose transport deficient and complemented with the L. Mexicana glucose transporter 2. Activity is measured by DNA content using SYBR green in vitro
Format: functional
molecules and their reported inhibition
State the answer as a number, implicitly in %.

Field: example entries. Status: answers known.
| molecule | u | reported |
| --- | --- | --- |
| OCC1CCN(Cc2cccc(-c3ccc(-c4nc5cc(F)ccc5[nH]4)cc3)c2)CC1 | % | 0.27 |
| c1ccc2c(NCCCCCCNc3ccnc4ccccc34)ccnc2c1 | % | -2.32 |
| O=C(Nc1cccc(-c2cc(-c3c(Cl)cccc3Cl)no2)c1)c1cncc(-c2cccs2)c1 | % | 10.8 |
| CCCCOc1ccc(-n2c(Nc3ccccc3)nc3cc(S(N)(=O)=O)ccc32)cc1 | % | 7.09 |

Input Nc1ncc(-c2ccsc2)c2ccc(-c3cc(NCc4ccccc4)ncn3)cc12 , output reported inhibition.
7.39

Input COc1cc2c(C3CCN(CC4CCN(C(=O)/C=C/c5ccc(Cl)c(Cl)c5)CC4)CC3)c[nH]c2cn1 , output reported inhibition.
-0.88

Input c1cc(Nc2nc(-c3ccc(-c4csc(Nc5ccncc5)n4)cc3)cs2)ccn1 , output reported inhibition.
-1.05

----------
compounds and their reported inhibition
system: Glucose transporter (Leishmania mexicana) (UniProt O61059)
protocol_description: ST_JUDE_LEISH: Cytotoxicity at 2uM final concentration against transgenic Leishmania Mexicana promastigotes LmGT2 that are glucose transport deficient and complemented with the L. Mexicana glucose transporter 2. Activity is measured by DNA content using SYBR green in vitro
Format: functional
State the answer as a number, implicitly in %.

| compound | inhibition [%] |
| --- | --- |
| O=C(Nc1ccc(-c2csc(-c3nc4ccccc4[nH]3)c2)cc1)Nc1ccc(Cl)c(Cl)c1 | -1.48 |
| CC(C)c1ccc(Nc2nc(NCCc3c[nH]cn3)nc(NCc3ccccc3)n2)cc1 | 0.61 |
| CCCC(C(=O)OCCN(CC)CC)(c1ccc(Cl)cc1)c1ccc(Cl)cc1 | 7.04 |
| Cc1nc2nc(N)nc(N)c2c(C)c1Cc1ccc(Cl)cc1 | 28.7 |
| CCOc1ccccc1NC(=O)Nc1ccc2c(c1)CCN(C1CCC1)CC2 | 10.2 |
| Cc1nc2ccc(F)cc2n1C1CCN(C(=O)Cc2ccc(F)c(F)c2)CC1 | 1.89 |
| c1ccc([C@H]2CN3CCSC3=N2)cc1 | -0.34 |
| CCOC(=O)NOC(C(=O)O)c1ccccc1 (stereo not drawn) | 0.52 |

Input COc1ccc(-n2ccnc2SCC(=O)Nc2cc(Cl)ccc2OC)c(OC)c1 , output reported inhibition.
4.9

Input CC(=O)Nc1ccc2[nH]cc(C3CCN(CC4CCC(NC(=O)/C=C/c5ccccc5Cl)CC4)CC3)c2n1 (stereo not drawn) , output reported inhibition.
6.59

Input CC1CCCC(C)N1C[C@@H](O)CNS(=O)(=O)c1cccc(C(F)(F)F)c1 (stereo partly drawn) , output reported inhibition.
-0.01

Input CN(C)CCOc1ccc(-n2c(-c3nonc3N)nc3cncc(-c4ccc(F)cc4)c32)cc1 , output reported inhibition.
2.52

Input Cc1ccc(C(C(=O)Nc2ccc(N3CCNCC3)c(Cl)c2)c2ccccc2)cc1 (stereo not drawn) , output reported inhibition.
1.72

This collection of values is drawn from ChEMBL document CHEMBL3433997.
